- Test system: ERBB3;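 also: KINOMEscan kinase panel screen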
- test.parameters: concentration: 1 μM, replicates: in singlicate; n = 1
%Inh by entry:
Record the value in %, omitting the unit from your answer.

For orientation, consider the following solved cases.
compound	output.unit	experimental.result
COc1ccc(Nc2nccc(NCCNC(=O)Nc3ccccc3F)n2)cc1	%	0
O=C1NC(=O)C(N2CCc3ccccc32)=C1c1ccccc1Cl	%	0
COC(=O)c1c(-c2ccccc2)c2cc(OC)ccc2c(=O)n1Cc1ccccc1	%	11
Cc1cccc(-c2nc(-c3ccc(S(C)(=O)=O)cc3)sc2-c2ccnc(NCCc3ccccc3)c2)c1	%	3
COc1cc(Nc2nccc(N3CCC(NC(=O)Nc4cc(C)ccc4C)C3)n2)cc(OC)c1OC (stereo not drawn)	%	0

// %Inh (ERBB3) for Nc1nc(-c2nccs2)c(-c2ccnc3ccccc23)s1 = 0

// %Inh (ERBB3) for Cn1ccc2ncnc(Oc3cccc(C(=O)Nc4ccccc4)c3)c21 = 18

Data origin, for the record: paper PMC5540273
